Tested on: O10A6
Sequence (whole entry): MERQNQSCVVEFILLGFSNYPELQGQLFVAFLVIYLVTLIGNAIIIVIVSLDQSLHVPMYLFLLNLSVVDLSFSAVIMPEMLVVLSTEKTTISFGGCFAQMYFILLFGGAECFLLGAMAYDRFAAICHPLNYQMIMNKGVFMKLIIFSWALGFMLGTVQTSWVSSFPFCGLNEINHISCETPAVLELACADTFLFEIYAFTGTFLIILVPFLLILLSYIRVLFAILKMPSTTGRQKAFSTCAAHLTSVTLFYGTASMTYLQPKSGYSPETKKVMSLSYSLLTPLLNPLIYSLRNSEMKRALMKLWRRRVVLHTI
Details: stereoisomer not certain
Answer with one of the outcomes given here: YES = active, NO = inactive

CCC1OC(=O)C(O)=C1C (centres undefined) :: NO
CCC(=O)OCCCc1ccccc1 :: YES
CCCCCCC=CCCC=O :: YES

API: the following record is the query input.
Test call, this compound: CC1=C(O)C(=O)C(C)O1 (centres undefined)
NO

---

Target: OR51E1 (Homo sapiens)
Sequence (whole entry): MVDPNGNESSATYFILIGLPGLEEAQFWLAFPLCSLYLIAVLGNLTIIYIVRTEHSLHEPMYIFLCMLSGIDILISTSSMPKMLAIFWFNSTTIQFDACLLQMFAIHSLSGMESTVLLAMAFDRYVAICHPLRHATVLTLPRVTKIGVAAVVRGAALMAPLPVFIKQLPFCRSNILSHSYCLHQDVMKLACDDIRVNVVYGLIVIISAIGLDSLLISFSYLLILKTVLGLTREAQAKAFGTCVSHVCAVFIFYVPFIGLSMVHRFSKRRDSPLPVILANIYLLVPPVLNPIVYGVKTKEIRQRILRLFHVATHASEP
Conditions: stereoisomer not certain
MEASURED_ATTRIBUTE: odorant receptor agonist call

Take a look at these entries with their results.
CCCCCC1CCCC(=O)O1 (stereo unspecified) :: inactive
CCC(C)CC(=O)O (stereo unspecified) :: active
CCCC(C)=O :: inactive
C=CCOC(=O)CCCCCC :: inactive
CCCCCCCO :: inactive

Give recorded odorant receptor agonist call. O=C([O-])c1ccccc1.[H+]
inactive

---

Molecular target: UniProt A2ATE5
Sequence (A2ATE5 as listed by the source): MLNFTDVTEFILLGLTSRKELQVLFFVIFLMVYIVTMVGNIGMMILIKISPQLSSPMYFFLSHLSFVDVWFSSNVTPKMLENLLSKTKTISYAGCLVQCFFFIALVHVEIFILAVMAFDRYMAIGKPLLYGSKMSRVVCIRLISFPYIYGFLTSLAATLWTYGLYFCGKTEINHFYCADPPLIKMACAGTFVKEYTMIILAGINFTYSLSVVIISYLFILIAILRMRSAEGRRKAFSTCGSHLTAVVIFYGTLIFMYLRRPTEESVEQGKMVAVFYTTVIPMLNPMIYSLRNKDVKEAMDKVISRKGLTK
Details: stereoisomer not certain
Answer with one of the outcomes given here: active, inactive

Examples with answers:
C=C(C)C1CC=C(C)CC1 (stereo not given) :: inactive
CCc1ccc(O)cc1 :: inactive
CCCCCCCCOC=O :: inactive
O=C(c1ccccc1)c1ccccc1 :: inactive
CC=CC(=O)C1=C(C)CCCC1(C)C :: inactive
CCCCCC=O :: inactive
O=C([O-])CCCCCCCC(=O)[O-].[H+].[H+] :: inactive
OCCc1ccccc1 :: inactive
CCCCCC(=O)CC :: inactive
CCCCCCCCCC(=O)[O-].[H+] :: inactive

Test call, this molecule: CC=Cc1ccc(OC)cc1
inactive

Test call, this molecule: C=CC(=C)CCC=C(C)CCC=C(C)C
inactive

Test call, this molecule: CCCCCCCCC=CC=O
inactive

Test call, this molecule: CCCCCCCCCO
inactive

---

Biological target: OR10S1 (Homo sapiens) (UniProt Q8NGN2)
Sequence (Q8NGN2 whole entry): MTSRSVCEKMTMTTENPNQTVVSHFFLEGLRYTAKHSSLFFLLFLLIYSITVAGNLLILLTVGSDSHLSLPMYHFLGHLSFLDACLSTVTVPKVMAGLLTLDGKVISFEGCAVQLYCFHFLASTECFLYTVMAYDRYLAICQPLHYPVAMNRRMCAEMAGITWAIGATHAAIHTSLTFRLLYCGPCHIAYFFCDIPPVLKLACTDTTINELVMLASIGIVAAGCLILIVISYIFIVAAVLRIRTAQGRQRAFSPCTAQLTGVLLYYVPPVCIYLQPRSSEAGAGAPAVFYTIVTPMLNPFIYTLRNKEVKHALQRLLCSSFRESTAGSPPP
Details: stereoisomer not certain
Answer with one of the outcomes given here: TRUE (active), FALSE (inactive)

Examples with answers:
CCCCCCCCCCCCCC(=O)O :: FALSE
CCCCCCCCCCCC(=O)OCC :: FALSE
CC1=CCC2CC1C2(C)C (stereo unspecified) :: FALSE

Test call, this compound: CC1CCCCCCCCCCCCC(=O)C1 (stereo unspecified)
FALSE

Test call, this compound: CCC(S)C(C)CO (stereo unspecified)
FALSE

Test call, this compound: CCCCCCCCCCCCCCCC(=O)OCC
FALSE

Test call, this compound: CCCCCCCCCCCCCCCCCC(=O)OC
FALSE

Test call, this compound: CCCCCCCCCC(=O)OCC
FALSE

Test call, this compound: Cc1cnc(C)c(C)n1
FALSE

Test call, this compound: COc1ccc2[nH]cc(CCNC(C)=O)c2c1
FALSE

Test call, this compound: CCCCCCCCCCCCCCCCCC(=O)OCC
FALSE

Test call, this compound: C=C(C)C1CC=C(C)CC1 (stereo unspecified)
FALSE

---

Target: UniProt Q8VH20
Sequence (Q8VH20 as listed by the source): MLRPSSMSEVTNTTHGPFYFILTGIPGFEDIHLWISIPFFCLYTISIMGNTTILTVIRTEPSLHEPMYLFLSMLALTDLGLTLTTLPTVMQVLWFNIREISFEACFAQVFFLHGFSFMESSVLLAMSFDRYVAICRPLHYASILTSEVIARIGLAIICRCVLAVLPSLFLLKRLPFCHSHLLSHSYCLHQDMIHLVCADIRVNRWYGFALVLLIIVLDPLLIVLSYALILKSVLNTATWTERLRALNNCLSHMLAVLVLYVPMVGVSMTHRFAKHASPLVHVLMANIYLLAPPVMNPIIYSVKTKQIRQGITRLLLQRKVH
Conditions: stereoisomer not certain
Answer with one of the outcomes given here: 1 = active, 0 = inactive

O=C(c1ccccc1)c1ccccc1 :: 0
CC(=O)OCc1ccc2c(c1)OCO2 :: 0
O=C(O)CCCCCBr :: 1
O=C(O)CCCCCCCCC(=O)O :: 0
CCCCC(=O)CC :: 0

Test call, this compound: CCC=CCCCCC=O
1

Test call, this compound: CC(C)=C1CCC(C)CC1=O (configuration not stated)
0

Test call, this compound: CCC(C)O (configuration not stated)
0

---

Target: OR5M3 (Homo sapiens) (UniProt Q8NGP4)
Sequence (Q8NGP4 whole entry): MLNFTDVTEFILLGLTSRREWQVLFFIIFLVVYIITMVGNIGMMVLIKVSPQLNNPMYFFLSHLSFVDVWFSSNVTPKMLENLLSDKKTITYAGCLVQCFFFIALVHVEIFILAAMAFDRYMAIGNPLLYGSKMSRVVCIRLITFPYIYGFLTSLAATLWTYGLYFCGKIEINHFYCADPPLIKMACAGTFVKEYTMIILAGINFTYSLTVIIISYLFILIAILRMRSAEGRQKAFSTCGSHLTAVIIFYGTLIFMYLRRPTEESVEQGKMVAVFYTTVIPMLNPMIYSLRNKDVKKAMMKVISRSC
Details: stereoisomer not certain
Answer with one of the outcomes given here: active, inactive

Examples with answers:
CCC(C)C=O (configuration not stated) :: inactive
SCCc1ccccc1 :: inactive
CCCCCC(C)O (configuration not stated) :: inactive
CC(=O)O :: inactive
CC(C)=CC1CC(C)CCO1 (configuration not stated) :: inactive
CC1(C)OC=CC1=O :: inactive
CCCSSCCC :: inactive
CC1=CCC2CC1C2(C)C (configuration not stated) :: inactive
CC1=C(O)C(=O)C(C)O1 (configuration not stated) :: active
CC1=CC(=O)C(C)O1 (configuration not stated) :: inactive

Test call, this compound: OCC=Cc1ccccc1
inactive

Test call, this compound: COc1cccc(OC)c1O
inactive

Test call, this compound: CCO
inactive

---

Biological target: OR52W1 (Homo sapiens)
Details: stereoisomer not certain
MEASURED_ATTRIBUTE: odorant receptor agonist call

Take a look at these entries with their results.
CC1=C(O)C(=O)OC1C (centres undefined) :: inactive
Cc1cnc(C)c(C)n1 :: inactive
CCCCCC(S)C(C)CO (centres undefined) :: inactive
CCCC(S)CCOC(C)=O (centres undefined) :: inactive
CCCCCC1CCCC(=O)O1 (centres undefined) :: inactive
CCCCCCC=CCCC=O :: inactive
CC(=O)c1c(C)c([N+](=O)[O-])c(C(C)(C)C)c([N+](=O)[O-])c1C :: inactive
CCC(S)C(C)CO (centres undefined) :: inactive

# next molecule below
Give recorded odorant receptor agonist call. CCCCC(S)C(C)CO (centres undefined)
inactive

---

Target: OR2AG1 (Homo sapiens)
Settings: stereoisomer not certain
MEASURED_ATTRIBUTE: odorant receptor agonist call

Take a look at these entries with their results.
CCCCCCC=CCCC=O :: inactive
CC(=O)c1c(C)c([N+](=O)[O-])c(C(C)(C)C)c([N+](=O)[O-])c1C :: inactive
CCC1OC(C)=C(O)C1=O (stereo not given) :: inactive
CC1CCCCCCCCCCCCC(=O)C1 (stereo not given) :: inactive
Cc1cnc(C)c(C)n1 :: inactive
CCCCCC(=O)C(C)C(C)=O (stereo not given) :: inactive
CC1=C(O)C(=O)OC1C (stereo not given) :: inactive
CC1=C(O)C(=O)C(C)O1 (stereo not given) :: inactive

Specify the recorded odorant receptor agonist call for CC1=NC(C)C(C)S1 (stereo not given) , system: OR2AG1 (Homo sapiens).
inactive

Specify the recorded odorant receptor agonist call for CCCCCOC(=O)CCC , system: OR2AG1 (Homo sapiens).
inactive

---

Target: UniProt Q7TQU8
Sequence (Q7TQU8 as listed by the source): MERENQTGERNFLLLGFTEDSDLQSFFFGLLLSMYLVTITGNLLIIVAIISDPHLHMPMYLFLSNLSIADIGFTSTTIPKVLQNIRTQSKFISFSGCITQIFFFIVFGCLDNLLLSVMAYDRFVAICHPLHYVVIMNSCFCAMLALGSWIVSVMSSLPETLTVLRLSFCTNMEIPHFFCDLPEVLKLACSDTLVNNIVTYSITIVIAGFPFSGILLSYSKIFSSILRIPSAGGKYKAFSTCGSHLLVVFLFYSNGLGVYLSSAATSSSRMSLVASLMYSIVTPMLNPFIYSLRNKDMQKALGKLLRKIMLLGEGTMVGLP
Settings: stereoisomer not certain
Answer with one of the outcomes given here: active, inactive

Examples with answers:
CC(C)=CCCC(C)=CCO :: inactive
Cc1occc1SSc1ccoc1C :: active
CCCCCC(C=O)=Cc1ccccc1 :: inactive
CCC(C)c1nccnc1OC (stereo unspecified) :: inactive
COc1nccnc1C :: inactive

Test call, this molecule: CCCCC(=O)CC
inactive

Test call, this molecule: Cc1ccc(OC(=O)C(C)C)cc1
inactive

Test call, this molecule: C=CC(=C)CCC=C(C)C
inactive

Test call, this molecule: COc1nccnc1C(C)C
inactive

Test call, this molecule: CC(=O)OCC=C(C)C
inactive

Test call, this molecule: Cc1ccc(C(C)C)cc1
inactive

Test call, this molecule: C=CCOC(=O)CCCCCC
inactive

Test call, this molecule: COc1cnccn1
inactive

Test call, this molecule: CCC(C)O (stereo unspecified)
inactive

---

Target: Or5p57 (Mus musculus) (UniProt Q8VEZ0)
Sequence (Q8VEZ0 whole entry): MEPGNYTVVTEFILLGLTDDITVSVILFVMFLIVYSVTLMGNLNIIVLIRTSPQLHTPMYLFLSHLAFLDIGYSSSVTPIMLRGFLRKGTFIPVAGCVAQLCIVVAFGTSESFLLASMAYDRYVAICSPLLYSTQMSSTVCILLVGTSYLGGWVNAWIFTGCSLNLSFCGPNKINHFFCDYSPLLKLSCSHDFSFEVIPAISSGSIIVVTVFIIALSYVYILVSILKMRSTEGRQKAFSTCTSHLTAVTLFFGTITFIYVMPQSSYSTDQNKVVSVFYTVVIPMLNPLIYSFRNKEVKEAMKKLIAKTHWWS
Conditions: stereoisomer not certain
Answer with one of the outcomes given here: active, inactive

Examples with answers:
CCCCCCO :: active
CCCCCCC(=O)[O-].[H+] :: inactive
O=C(O)CCCCBr :: inactive
O=C(O)CCCBr :: inactive
O=C([O-])CCCCC(=O)[O-].[H+].[H+] :: inactive

Test call, this compound: CCCCCCCCO
inactive

Test call, this compound: CCCCCO
inactive

---

Molecular target: OR6C4 (Homo sapiens)
Settings: stereoisomer not certain
MEASURED_ATTRIBUTE: odorant receptor agonist call

Take a look at these entries with their results.
CCCCCCC=CCCC=O :: inactive
Cc1cnc(C)c(C)n1 :: inactive
CC1=NC(C)C(C)S1 (stereo not drawn) :: inactive
CCCCCC(=O)C(C)C(C)=O (stereo not drawn) :: inactive
CCC1OC(C)=C(O)C1=O (stereo not drawn) :: inactive

Give recorded odorant receptor agonist call. CCCCCC(S)C(C)CO (stereo not drawn)
inactive

Give recorded odorant receptor agonist call. CC(CO)CS (stereo not drawn)
inactive

Give recorded odorant receptor agonist call. CCCCC(S)C(C)CO (stereo not drawn)
inactive
